tested on: HIV-1 (NL4-3 strain); experiment: Assay for inhibition of HIV replication (ViKinG; infected MT4-GFP cells); format: cell-based; conditions: MT4-GFP cells infected with HIV-1 NL4-3; 100% normal human serum (NHS); read-out: ViKinG IP (nM) with 100% NHS
Test readout: log10 IC50 (log10 of the value in nM)
// stored as log10 of IC50 expressed in nM

Please review the entries below; each comes with its answer.
CN(C)C(=O)C1(C)CCC2(CC1)N(C)C(=O)c1c(O)c(=O)c(-c3nnc(Cc4ccc(F)cc4)s3)cn1N2C (stereo not shown) [Compound 148] ... 2.08
CN1C2CCCCN2C(=O)c2c(O)c(=O)c(-c3nnc(Cc4ccc(F)cc4)s3)cn21 (stereo not shown) [Compound 154] ... 3.20

List log10 IC50 for every entry below, keeping the order given.
1. CCN1C(=O)c2c(O)c(=O)c(-c3nnc(Cc4ccc(F)cc4)s3)cn2N(C)C12CCC(CC(=O)N(C)C)CC2 (stereo not shown) [Compound 98]
2. CN1C2C(O)CCCN2C(=O)c2c(O)c(=O)c(-c3nnc(Cc4ccc(F)cc4F)s3)cn21 (stereo not shown) [Compound 166]
3. CCN1C(=O)c2c(O)c(=O)c(-c3nnc(Cc4ccc(F)cc4F)s3)cn2N(C)C12CCC(OCCOCCOC)CC2 (stereo not shown) [Compound 67]
4. CN1C2CCCCN2C(=O)c2c(O)c(=O)c(-c3nnc(Cc4ccc(F)cc4F)s3)cn21 (stereo not shown) [Compound 158]
5. CN1C2COCCN2C(=O)c2c(O)c(=O)c(-c3nnc(Cc4ccc(F)cc4)s3)cn21 (stereo not shown) [Compound 162]

# output
1. 2.23
2. 2.21
3. 2.20
4. 2.70
5. 2.27
